subject of test: Interleukin-23 receptor (Homo sapiens, UniProt Q5VWK5)
Sequence (Q5VWK5 whole entry): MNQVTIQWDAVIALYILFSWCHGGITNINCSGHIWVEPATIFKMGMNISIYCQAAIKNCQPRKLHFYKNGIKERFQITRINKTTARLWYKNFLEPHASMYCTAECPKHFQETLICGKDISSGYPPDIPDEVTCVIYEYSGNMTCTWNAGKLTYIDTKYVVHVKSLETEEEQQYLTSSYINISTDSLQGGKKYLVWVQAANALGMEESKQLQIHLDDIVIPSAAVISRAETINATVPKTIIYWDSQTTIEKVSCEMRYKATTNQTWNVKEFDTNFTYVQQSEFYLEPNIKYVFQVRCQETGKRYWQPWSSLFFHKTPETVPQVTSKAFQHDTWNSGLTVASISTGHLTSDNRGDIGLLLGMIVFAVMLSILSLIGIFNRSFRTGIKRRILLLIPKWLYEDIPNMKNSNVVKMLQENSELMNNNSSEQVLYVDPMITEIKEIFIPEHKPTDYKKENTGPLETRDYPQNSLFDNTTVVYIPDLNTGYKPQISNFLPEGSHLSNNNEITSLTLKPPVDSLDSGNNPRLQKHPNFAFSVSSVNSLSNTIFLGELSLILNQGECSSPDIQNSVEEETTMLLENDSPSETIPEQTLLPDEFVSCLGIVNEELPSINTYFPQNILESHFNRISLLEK
experiment summary: Inhibition of interleukin-23 receptor in human DB cells assessed as reduction in IL-23-stimulated STAT3 phosphorylation incubated for 30 mins by HTRF assay
Assay type: cell-based
Where a SMILES comes first, the peptide text is derived from it. [ ]: non-standard residue; d: D form. Phe(3,4-(OMe)2) = COc1ccc(C[C@H](N)C(=O)O)cc1OC; Phe(4-CONH2) = NC(=O)c1ccc(C[C@H](N)C(=O)O)cc1; 2Nal = N[C@@H](Cc1ccc2ccccc2c1)C(=O)O; AEF = NCCOc1ccc(C[C@H](N)C(=O)O)cc1; Pen = CC(C)(S)[C@H](N)C(=O)O; αMeK = C[C@](N)(CCCCN)C(=O)O; αMeV = CC(C)[C@](C)(N)C(=O)O; Aib = CC(C)(N)C(=O)O
observable: IC50

>>> test_result("CC(=O)N[C@H](C(=O)N[C@@H](CCC(N)=O)C(=O)N[C@H](C(=O)N[C@@H](Cc1c[nH]c2ccccc12)C(=O)N[C@@H](CCC(N)=O)C(=O)N[C@H](C(=O)N[C@@H](Cc1ccc2ccccc2c1)C(=O)N[C@@H](Cc1ccc2ccccc2c1)C(=O)N[C@@](C)(CCCCN)C(=O)N[C@@H](CCC(=O)O)C(=O)N[C@@H](CC(N)=O)C(=O)NCC(N)=O)C(C)(C)S)[C@@H](C)O)C(C)(C)S (Ac-[Pen]QTWQ[Pen][2Nal][2Nal][αMeK]ENG-NH2)")
"10 to 25 nM"
>>> test_result("COc1ccc(C[C@H](NC(=O)[C@@H](NC(=O)[C@H](CCC(N)=O)NC(=O)[C@H](Cc2c[nH]c3ccccc23)NC(=O)[C@@H](NC(=O)[C@H](CCC(N)=O)NC(=O)[C@@H](NC(C)=O)C(C)(C)S)[C@@H](C)O)C(C)(C)S)C(=O)N[C@@H](Cc2ccc3ccccc3c2)C(=O)N[C@@H](CCC(C)C)C(=O)N[C@@H](CCCCNC(C)=O)C(=O)N[C@@H](CC(N)=O)C(=O)NCCC(N)=O)cc1")
"< 10 nM"
>>> test_result("CC(=O)NCCCC[C@H](NC(=O)C(C)(C)NC(=O)[C@H](Cc1ccc2ccccc2c1)NC(=O)[C@H](Cc1ccc(OCCN)cc1)NC(=O)[C@@H](NC(=O)[C@H](CCC(N)=O)NC(=O)[C@H](Cc1c[nH]c2ccccc12)NC(=O)[C@@H](NC(=O)[C@H](CCC(N)=O)NC(=O)[C@@H](NC(=O)[C@H](Cc1ccc2ccccc2c1)NC(C)=O)C(C)(C)S)[C@@H](C)O)C(C)(C)S)C(=O)N[C@@H](CC(N)=O)C(=O)N[C@@H](CC(N)=O)C(N)=O")
"< 10 nM"
>>> test_result("CC(=O)NCCCC[C@H](NC(=O)[C@](C)(CO)NC(=O)[C@H](Cc1ccc2ccccc2c1)NC(=O)[C@H](Cc1ccc(OCCN)cc1)NC(=O)[C@@H]1CSCC[C@H](NC(C)=O)C(=O)N[C@@H](CCC(N)=O)C(=O)N[C@@H]([C@@H](C)O)C(=O)N[C@@H](Cc2c[nH]c3ccccc23)C(=O)N[C@@H](CCC(N)=O)C(=O)N1)C(=O)N[C@@H](CC(N)=O)C(=O)NCC(N)=O")
"< 10 nM"
>>> test_result("CC(=O)NCCCC[C@H](NC(=O)C(C)(C)NC(=O)[C@H](Cc1ccc2ccccc2c1)NC(=O)[C@H](Cc1ccc(OCCN)cc1)NC(=O)[C@@H](NC(=O)[C@H](CCC(N)=O)NC(=O)[C@H](Cc1c[nH]c2ccccc12)NC(=O)[C@@H](NC(=O)[C@H](CCC(N)=O)NC(=O)[C@@H](NC(=O)[C@H](Cc1ccccc1)NC(C)=O)C(C)(C)S)[C@@H](C)O)C(C)(C)S)C(=O)N[C@@H](CC(N)=O)C(=O)N[C@@H](CC(N)=O)C(N)=O")
"< 10 nM"
>>> test_result("CC(=O)N[C@@H](CS)C(=O)N[C@@H](CCCNC(=N)N)C(=O)N[C@H](C(=O)N[C@@H](Cc1c[nH]c2ccccc12)C(=O)N[C@@H](CCC(N)=O)C(=O)N[C@@H](CS)C(=O)N[C@@H](Cc1ccc(O)cc1)C(=O)N[C@@H](Cc1c[nH]c2ccccc12)C(=O)N[C@@H](CCCNC(=N)N)C(=O)N[C@@H](CCC(=O)O)C(=O)N[C@@H](Cc1ccc(O)cc1)C(=O)NCC(=O)N[C@@H](C)C(=O)N[C@H](CCCCN)C(N)=O)[C@@H](C)O")
"8 nM"
>>> test_result("CC(=O)NCCCC[C@H](NC(=O)[C@](C)(CCCCN)NC(=O)[C@H](Cc1ccc2ccccc2c1)NC(=O)[C@H](Cc1ccc(C(N)=O)cc1)NC(=O)[C@@H](NC(=O)[C@H](CCC(N)=O)NC(=O)[C@H](Cc1c[nH]c2ccccc12)NC(=O)[C@@H](NC(=O)[C@H](CCC(N)=O)NC(=O)[C@@H](NC(C)=O)C(C)(C)S)[C@@H](C)O)C(C)(C)S)C(=O)N[C@@H](CC(N)=O)C(=O)N[C@@H](CC(N)=O)C(N)=O")
"< 10 nM"
>>> test_result("COc1ccc(C[C@H](NC(=O)[C@H](Cc2ccc(C(N)=O)cc2)NC(=O)[C@@H](NC(=O)[C@H](CCC(N)=O)NC(=O)[C@H](Cc2c[nH]c3ccccc23)NC(=O)[C@@H](NC(=O)[C@H](CCC(N)=O)NC(=O)[C@@H](NC(C)=O)C(C)(C)S)[C@@H](C)O)C(C)(C)S)C(=O)N[C@](C)(C(=O)N[C@@H](CCCCNC(C)=O)C(=O)N[C@@H](CC(N)=O)C(=O)N[C@@H](CC(N)=O)C(N)=O)C(C)C)cc1OC (Ac-[Pen]QTWQ[Pen][Phe(4-CONH2)][Phe(3,4-(OMe)2)][αMeV]K(Ac)NN-NH2)")
"10 to 25 nM"
>>> test_result("CC(=O)NCCCC[C@H](NC(=O)C(C)(C)NC(=O)[C@H](Cc1ccc2ccccc2c1)NC(=O)[C@H](Cc1ccc(OCCN)cc1)NC(=O)[C@@H](NC(=O)[C@H](CCC(N)=O)NC(=O)[C@H](Cc1c[nH]c2ccccc12)NC(=O)[C@@H](NC(=O)[C@H](CCC(N)=O)NC(=O)[C@@H](NC(=O)[C@H](CC(C)C)NC(C)=O)C(C)(C)S)[C@@H](C)O)C(C)(C)S)C(=O)N[C@@H](CC(N)=O)C(=O)N[C@@H](CC(N)=O)C(N)=O (Ac-L[Pen]QTWQ[Pen][AEF][2Nal][Aib]K(Ac)NN-NH2)")
"< 10 nM"
>>> test_result("COc1ccc(C[C@H](NC(=O)[C@H](Cc2ccc(OCCN)cc2)NC(=O)[C@@H]2CSCC[C@H](NC(C)=O)C(=O)N[C@@H](CCC(N)=O)C(=O)N[C@@H]([C@@H](C)O)C(=O)N[C@@H](Cc3c[nH]c4ccccc34)C(=O)N[C@@H](CCC(N)=O)C(=O)N2)C(=O)N[C@@](C)(CCCCN)C(=O)N[C@@H](CCCCNC(C)=O)C(=O)N[C@@H](CC(N)=O)C(=O)NCC(N)=O)cc1OC")
"< 10 nM"

---

experiment summary: Half life in simulated intestinal fluid at 20 uM by LC-MS/MS analysis
Type: ADME
observable: half-life at 20 µM

>>> test_result("COc1ccc(C[C@H](NC(=O)[C@@H](NC(=O)[C@H](CCC(N)=O)NC(=O)[C@H](Cc2c[nH]c3ccccc23)NC(=O)[C@@H](NC(=O)[C@H](CC(N)=O)NC(=O)[C@@H](NC(C)=O)C(C)(C)S)[C@@H](C)O)C(C)(C)S)C(=O)N[C@@H](Cc2ccc3ccccc3c2)C(=O)NC(C)(C)C(=O)N[C@@H](CCCCNC(C)=O)C(=O)N[C@@H](CC(N)=O)C(=O)N[C@@H](CCC(N)=O)C(N)=O)cc1")
"> 6 h"
>>> test_result("CC(=O)NCCCC[C@H](NC(=O)[C@](C)(CCCCN)NC(=O)[C@H](Cc1c[nH]c2ccccc12)NC(=O)[C@H](Cc1ccc(O)cc1)NC(=O)[C@@H](NC(=O)[C@H](CCC(N)=O)NC(=O)[C@H](Cc1c[nH]c2ccccc12)NC(=O)[C@@H](NC(=O)[C@H](CCC(N)=O)NC(=O)[C@@H](NC(C)=O)C(C)(C)S)[C@@H](C)O)C(C)(C)S)C(=O)N[C@@H](CC(N)=O)C(=O)NCC(N)=O")
"> 6 h"
>>> test_result("CC(=O)N[C@H]1CCSC[C@@H](C(=O)N[C@@H](Cc2ccc(O)cc2)C(=O)N[C@@H](Cc2c[nH]c3ccccc23)C(=O)N[C@@](C)(CC(C)C)C(=O)N[C@@H](CCC(=O)O)C(=O)N[C@@H](CC(N)=O)C(=O)NCC(N)=O)NC(=O)[C@H](CCC(N)=O)NC(=O)[C@H](Cc2c[nH]c3ccccc23)NC(=O)[C@H]([C@@H](C)O)NC(=O)[C@H](CCC(N)=O)NC1=O")
"< 1 h"
